assay: NCI Yeast Anticancer Drug Screen. Data for the rad14 strain (AID 159);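 further: 0% = growth of vehicle-treated control cultures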; conditions: S. cerevisiae rad14 strain growth inhibition; at 11.0 µM
Compounds without any hit were thinned out: in the full panel of roughly 79,000, 15% have a hit. Active and inactive are the calls of the source. No stated cut-off is given here; in the data, active means growth inhibition above about 70%; inactive means the rest.
Tick one outcome: yes (1) for active, no (0) for inactive

Look over these answered cases.
OC1CCCc2c1cc1ccc3cccc4ccc2c1c34 (stereo not drawn)
yes (1)
O=C(NCCCNCCCNC(=O)c1cc(-c2ccccc2)nc2ccccc12)c1cc(-c2ccccc2)nc2ccccc12
no (0)

IN: Fill in: this test's call for Cc1ccc(NN(NC(=O)OC(C)C)C(=O)OC(C)C)cc1 is ___
OUT: no (0)

IN: Would you mind telling me which call this test gave COc1cc(C2C3=C(COC3=O)Oc3cc4c(cc32)OCO4)ccc1O (stereo not drawn) ?
OUT: no (0)

IN: Hi, sorry to bother you, what did the test record for Cc1ccc(CCC2=CCCc3c2ccc2ccccc32)cc1 ?
OUT: no (0)

IN: Recorded test call requested for CN(C)CCOc1ccc2c(c1)C/C(=C/c1ncc([N+](=O)[O-])n1C)C2=O
OUT: yes (1)

IN: Look up the recorded call for Nc1nc(-c2cccnc2)cc(-c2cc(-c3cccnc3)nc(N)n2)n1 in this test.
OUT: no (0)

IN: Query: recorded result category for O=C(NCCCCNCCCNC(=O)c1cc(-c2ccccc2)nc2ccccc12)c1cc(-c2ccccc2)nc2ccccc12 in this test
OUT: no (0)

IN: Given N#CN1C2CCC1CC(=O)C2 , state the outcome it received in this test.
OUT: no (0)

IN: So what was the verdict on CCN(CC)[P+](c1ccccc1O)(N(CC)CC)N(CC)CC in this test?
OUT: no (0)

IN: Outcome? Cc1c(C(Cc2ccccc2N(C)C(=O)/C=C\C(=O)O)c2c[nH]c3ccccc23)c2ccccc2n1C (stereo not drawn)
OUT: no (0)

IN: What did the test return for O=C1Nc2ccc(Cl)c(I)c2C1=O ?
OUT: no (0)

IN: What classification did CC(=O)[O][Bi]([c]1ccccc1)[c]1ccccc1 end up with in this test?
OUT: no (0)

IN: For CC(=O)Oc1cc(-c2cc(OC(C)=O)c(OC(C)=O)c3ccccc23)c2ccccc2c1OC(C)=O , what call appears in the results of this test?
OUT: no (0)

IN: Recorded test outcome, item Oc1cccc2c(Cl)ccnc12
OUT: yes (1)

IN: Assay outcome for CC(C(=O)N1C(=O)N(C(=O)[C@H](C)C(O)c2ccccc2)[C@H](c2ccccc2)[C@H]1c1ccccc1)[C@@H](O)c1ccccc1 (stereo partly drawn) : what was it?
OUT: no (0)

IN: Assay result, entry CSC(=S)Nc1cc(C)ccn1 — outcome?
OUT: no (0)

IN: For this compound, state the assay outcome: Cc1ccc2ccc3cccc4ccc1c2c34
OUT: no (0)

IN: How was COC(=O)C1=C(C)NC(C)=C(C(=O)OC)C1c1cccc(/[N+]([O-])=C/c2ccccc2)c1 classified in this test?
OUT: no (0)

IN: Lab log entry: O=C(Cc1csc2[n+]1C(=O)/C(=C/c1ccc(Cl)cc1)S2)Nc1ccccc1 — outcome as called in the assay?
OUT: no (0)

IN: Dear all, I need the recorded test outcome for O=C(N=Nc1ccccc1Cl)NNc1ccccc1Cl , thank you.
OUT: no (0)

IN: Give the logged outcome of this assay for the following compound: S=C(N/N=C/c1ccccn1)Nc1ccc(Cl)cc1
OUT: no (0)

IN: Hi, sorry to bother you, what did the test record for COc1ccccc1N=NC(C(=O)c1ccccc1)C(=O)c1ccccc1 ?
OUT: no (0)
